# EC50 annotations
Molecular target: GLP-1R (Homo sapiens, UniProt P43220)
Sequence (P43220 24-463): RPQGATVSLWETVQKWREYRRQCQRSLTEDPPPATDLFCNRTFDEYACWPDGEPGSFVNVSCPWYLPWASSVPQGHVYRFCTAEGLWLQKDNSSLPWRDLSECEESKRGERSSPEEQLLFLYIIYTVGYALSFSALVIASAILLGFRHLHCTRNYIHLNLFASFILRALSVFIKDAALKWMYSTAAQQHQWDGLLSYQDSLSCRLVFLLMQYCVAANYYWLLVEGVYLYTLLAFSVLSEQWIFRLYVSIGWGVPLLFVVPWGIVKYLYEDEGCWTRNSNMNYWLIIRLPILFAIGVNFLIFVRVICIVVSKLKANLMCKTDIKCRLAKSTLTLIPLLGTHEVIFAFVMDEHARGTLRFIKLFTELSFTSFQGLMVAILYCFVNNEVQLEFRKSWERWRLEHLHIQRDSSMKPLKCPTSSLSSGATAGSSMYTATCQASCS
Sequence (P01275 100-127 partner limits assumed): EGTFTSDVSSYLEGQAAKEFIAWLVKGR
Assay: EC20 GLP-1(9-36) PAM cAMP Assay: dose response of compound in the presence of fixed concentration of GLP-1(9-36)
Conditions: GLP-1R CRE-bla CHO-K1 cells, in presence of fixed concentration of GLP-1(9-36), 30 min at 37° C.
quantity.measured: EC50

compound | reading
CCCc1ccc(C(=O)N[C@@H](Cc2ccc(-c3ncc(C4=CCC(C5CCC(CCC)CC5)CC4)cn3)cc2)C(=O)N2CC(C(=O)O)C2)cc1 (stereo partly drawn) | < 500 nM
CC[C@H]1CC[C@H](C2CC=C(c3cnc(-c4ccc(C[C@H](NC(=O)c5ccc(CC(C)C)cc5)C(=O)N5CC(C(=O)O)C5)cc4)nc3)CC2)CC1 (stereo partly drawn) | 500 to 2500 nM
CCCC1CCC(C2CC=C(c3cnc(-c4ccc(C[C@@H](NC(=O)c5ccc(C(C)(C)C)s5)C(=O)N5CC(C(=O)O)C5)cc4)nc3)CC2)CC1 (stereo partly drawn) [Compound 81] | 500 to 2500 nM
CC[C@H]1CC[C@H](C2CC=C(c3cnc(-c4ccc(C[C@H](NC(=O)c5ccc(C(C)(C)C)s5)C(=O)N5CC(C(=O)O)C5)cc4)nc3)CC2)CC1 (mixture of isomers) | < 500 nM
CC(=O)C1CC=C(c2cnc(-c3ccc(C[C@H](NC(=O)c4ccc(C(C)(C)C)s4)C(=O)N[C@H](C)C(=O)O)cc3)nc2)CC1 (stereo partly drawn) | < 500 nM
CCC1CC=C(c2cnc(-c3ccc(C[C@H](NC(=O)c4ccc(C(C)(C)C)s4)C(=O)N[C@H](C)C(=O)O)cc3)nc2)CC1 (stereo partly drawn) | 500 to 2500 nM

====

Target: GLP-1R (Homo sapiens)
Test: EC20 GLP-1(9-36) PAM cAMP Assay: dose response of compound in the presence of fixed concentration of GLP-1(9-36)
Details: GLP-1R CRE-bla CHO-K1 cells, in presence of fixed concentration of GLP-1(9-36), 30 min at 37° C.
# EC50 annotations

molecule | EC50
CCCC1CCC(C2CC=C(c3cnc(-c4ccc(C[C@H](NC(=O)c5ccc(C(C)(C)C)s5)C(=O)N[C@H](C(=O)O)[C@@H](C)O)cc4)nc3)CC2)CC1 (stereo partly drawn) | < 500 nM
CC(C)(C)c1ccc(C(=O)N[C@@H](Cc2ccc(-c3ncc(C4=CCC(C5CCCCC5)CC4)cn3)cc2)C(=O)N2CC(C(=O)O)C2)s1 (stereo partly drawn) | < 500 nM
CCCC1CCC(C2CC=C(c3cnc(-c4ccc(C[C@H](NC(=O)c5ccc(C(C)(C)C(F)(F)F)cc5)C(=O)N5CC(C(=O)O)C5)cc4)nc3)CC2)CC1 (stereo partly drawn) | 500 to 2500 nM
CC(C)(C)c1ccc(C(=O)N[C@@H](Cc2ccc(-c3ncc(C4=CCC([C@H]5CC[C@H](C)CC5)CC4)cn3)cc2)C(=O)NS(C)(=O)=O)s1 (stereo partly drawn) | < 500 nM
C[C@@H](NC(=O)[C@H](Cc1ccc(-c2ncc(C3=CC(=O)CC(c4ccccc4)C3)cn2)cc1)NC(=O)c1ccc(C(C)(C)C)s1)C(=O)O (stereo partly drawn) | 5000 to 10000 nM
CCCC1CCC(C2CC=C(c3cnc(-c4ccc(C[C@H](NC(=O)c5ccc(C(C)(C)C)s5)C(=O)N5CCC[C@H]5C(=O)O)cc4)nc3)CC2)CC1 (stereo partly drawn) | < 500 nM
